biological target: T1, human transferrin receptor (recombinant, for surface plasmon resonance) (human, UniProt P02786 89-760); experiment: SPR
T1 construct: also called huTfR; human transferrin receptor-biotinylated
T1 sequence (P02786 89-760 limits assumed): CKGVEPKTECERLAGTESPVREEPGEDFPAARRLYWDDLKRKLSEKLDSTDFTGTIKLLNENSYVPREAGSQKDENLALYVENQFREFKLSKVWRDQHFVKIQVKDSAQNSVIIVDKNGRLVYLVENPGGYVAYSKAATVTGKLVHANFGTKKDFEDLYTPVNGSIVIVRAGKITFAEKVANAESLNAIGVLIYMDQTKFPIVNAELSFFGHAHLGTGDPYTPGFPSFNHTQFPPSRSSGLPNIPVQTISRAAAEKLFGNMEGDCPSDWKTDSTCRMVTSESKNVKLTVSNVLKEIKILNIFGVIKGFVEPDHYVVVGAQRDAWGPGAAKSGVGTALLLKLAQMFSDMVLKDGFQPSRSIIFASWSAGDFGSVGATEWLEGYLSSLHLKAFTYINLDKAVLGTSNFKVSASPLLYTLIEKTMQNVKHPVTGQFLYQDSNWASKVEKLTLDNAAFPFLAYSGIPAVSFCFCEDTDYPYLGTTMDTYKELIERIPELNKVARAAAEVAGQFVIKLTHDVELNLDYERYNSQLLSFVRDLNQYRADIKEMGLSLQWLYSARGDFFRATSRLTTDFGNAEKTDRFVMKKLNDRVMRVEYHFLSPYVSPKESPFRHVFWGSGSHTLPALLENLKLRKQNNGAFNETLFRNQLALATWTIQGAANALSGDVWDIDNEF
Threshold-based label: koff under 0.0004 s⁻¹ gives Criterion met, koff not under 0.0004 s⁻¹ gives Criterion not met.

binder="4/94 SEQ ID NO 198 / SEQ ID NO 209 (antibody, V domains shown) VH: QVQLVQSGAEVKKPGSSVKVSCKASGFNIKDTYIHWVIQRPGQGLEWMGRIDPANGDTKSDPKFQGRVTITADESTSTAYMELSSLRSEDTAVYYCVRDYLYPYYFDFWGQGTTVTVSS VL: KIVLTQSPGTLSLSPGERATLSCRASESVDTYVSWYQQKPGQAPRLLIYGASNRYTGIPDRFSGSGSGTDFTLTISRLEPEDFADYYCGQTYNYPLTFGQGTKLEI" category="Criterion not met"
binder="4/94 murine VH / SEQ ID NO 201 (antibody, V domains shown) VH: EVQLQQSGAVLVKPGASVKLSCPASGFNIKDTYIHWVIQRPEQGLEWIGRIDPANGDTKCDPKFQVKATITADTSSNTAYLQLSSLTSEDTAVYFCVRDYLYPYYFDFWGQGTTLTVSS VL: KIQMTQSPSSLSASVGDRVTITCRASESVDTYVSWYQQKPGKAPKLLIYGASNRYTGVPSRFSGSGSGTDFTLTISSLQPEDFADYYCGQTYNYPLTFGQGTKLEI" category="Criterion met"
binder="4/94 SEQ ID NO 194 / SEQ ID NO 207 (antibody, V domains shown) VH: QVQLVQSGAEVKKPGASVKVSCKASGFNIKDTYIHWVIQAPGQGLEWMGRIDPANGDTKSDPKFQVRVTITADTSTSTVYMELSSLRSEDTAVYYCVRDYLYPYYFDFWGQGTTVTVSS VL: KIVLTQSPGTLSLSPGERATLSCRASESVDTYVSWYQQKPGQAPRLLIYGASNRYTGVPDRFSGSGSGTDFTLTISRLEPEDFADYYCGQTYNYPLTFGQGTKLEI" category="Criterion not met"
binder="4/94 SEQ ID NO 195 / SEQ ID NO 208 (antibody, V domains shown) VH: QVQLVQSGAEVKKPGASVKVSCKASGFNIKDTYIHWVIQAPGQGLEWMGRIDPANGDTKSAPKFQVRVTITADTSTSTVYMELSSLRSEDTAVYYCVRDYLYPYYFDFWGQGTTVTVSS VL: EIVLTQSPGTLSLSPGERATLSCRASESVDTYVSWYQQKPGQAPRLLIYGASNRYTGVPDRFSGSGSGTDFTLTISRLEPEDFADYYCGQTYNYPLTFGQGTKLEI" category="Criterion not met"
